- Test system: A549 NSCLC
- assayOverview: NCI tumour cell line growth inhibition, 48 h
Where a SMILES comes first, the peptide text is derived from it. [ ]: non-standard residue; d: D form. The star is where a group is joined. Tyr(3-Br) = N[C@@H](Cc1ccc(O)c(Br)c1)C(=O)O; Boc = CC(C)(C)OC(=O)*
// TGI lookup, one value per entry
measurementName: TGI

compound	measuredValue
CS(=O)(=O)Nc1cccc(-c2cc(-c3ccccc3Cl)c(C#N)c(N)n2)c1	16.6 µM
COc1ccc(C2Oc3cc(OC)c(O)c(C)c3[C@H]2C)cc1 (stereo partly specified)	> 100 µM
O=C(O)CNc1ccc(C(=O)O)cc1	> 100 µM
Clc1ccc(C2=Nn3c(nnc3-c3cc(Cl)cc(Cl)c3Cl)SC2)cc1	> 100 µM
CN(CCc1ccccn1)c1nc(=[N+](C)C)ss1	> 100 µM
CCN1C[C@]2(C)CC[C@H](OC)C34C1C([C@H](OC(C)=O)[C@@H]32)[C@@]1(OC)C[C@H](OC)[C@H]2C[C@@H]4[C@@H]1[C@H]2O	> 100 µM
Cc1nc2c(nc1C)-c1c(c3c(n1C)C(=O)CCC3)C(=O)C2=O	4.56 µM
O=C(C[n+]1ccccc1)N/N=C(\Cc1nc2ccc([N+](=O)[O-])cc2[nH]c1=O)C(=O)Nc1cc(Cl)c(Cl)cc1Cl	> 100 µM
CN1CCN(c2cc(C(=O)Nc3cc4cc(-c5cnn(C)c5)ccc4cn3)ccn2)CC1	11.4 µM
CCOC(=O)Cc1csc2[n+]1C(=O)/C(=C/c1cccc(OC)c1O)S2	> 100 µM
CC(=O)NNc1nc(C)c(C(/C=C/c2ccc([N+](=O)[O-])cc2)=N/NC(N)=S)s1	> 100 µM
CC(C)OP(=O)(OC(C)C)/C(C#N)=C/c1ccco1	> 100 µM
CCCCCCCCCCCCCCCC[N+](C)(CCO)Cc1cnc[nH]1 (stereo unspecified)	5.57 µM
CCCC(=O)O[C@H]1C=C2C[C@@]34SS[C@]5(CC6=C[C@H](OC(C)=O)[C@@H]7O[C@@H]7[C@H]6N5C3=O)C(=O)N4[C@@H]2[C@H]2O[C@H]21	1.68 µM
Cc1cccc(CC(Cc2c(C)cccc2C(=O)O)C(=O)O)c1 (stereo unspecified)	> 100 µM
O=C(O)CCC/C=C\C[C@H]1C=CC(=O)/C1=C/C[C@@H](O)CCc1cccc(C(F)(F)F)c1	9.76 µM
Cc1ccc(S(=O)(=O)N2C[C@](O)(c3ccccc3)[C@H]2C)cc1	> 100 µM
COP(=O)(Cc1ccccc1)Cc1ccccc1	> 100 µM
Cc1ccccc1C(=O)Oc1ccc(O)cc1	> 100 µM
COc1ccc(Cc2cc3c(cc2OCC(=O)O)OCO3)cc1	> 100 µM
Cc1ccc2c(c1)C(=O)N1CCC[C@H]1C=N2	> 100 µM
O=c1c(O)cccc2cc(O)c(O)c(O)c12	> 100 µM
CC=CCOc1cc(NC(=S)OC(C)C)ccc1Cl (mixture of isomers)	33.1 µM
CN(C)CCSc1cccc(-c2cc(-c3cccc(SCCN(C)C)c3)nc(SCCN(C)C)n2)c1	3.47 µM
CN1C(c2ccccc2)CS(=O)(=O)CS1(=O)=O (stereo unspecified)	> 100 µM
COc1ccc2c(c1)/C(=C\c1c(C)nc3sc(C)cn13)C(=O)N2	> 100 µM
CC#C/C(=N\OC[C@H]1COCCN1)c1ccc2ncnc(Nc3ccc(OCc4cccc(F)c4)c(Cl)c3)c2c1	9.85 µM
COC(=O)[C@H](Cc1ccc(O)c(Br)c1)NC(=O)[C@H](Cc1ccc(O)cc1)NC(=O)OC(C)(C)C (Boc-Tyr-[Tyr(3-Br)]-OMe)	> 100 µM
Cc1ccc2c(n1)C(=O)C=CC2=O	41.2 µM
Cc1cc(O)c(C2=NN(c3ccc(S(N)(=O)=O)cc3)C(c3ccc(N(C)C)cc3)C2)c(C)c1Cl (stereo unspecified)	43.5 µM
Cc1cc(-c2nc3ccccc3s2)ccc1N	> 100 µM
CCNc1nnc(-c2nsc3ccccc23)s1	> 100 µM
CC1(C)OB(O)OC1(C)C	> 100 µM
CC1(C)CC23CC(C)(C)c4cccc(c42)OCc2ccc4ccc5ccc(nc5c4n2)COc2cccc1c23	> 50 µM
O=c1[nH]c2cc([N+](=O)[O-])ccc2nc1/C(=N/Nc1ccccc1)C(O)c1ccc(C(O)/C(=N\Nc2ccccc2)c2cnc3cc([N+](=O)[O-])ccc3n2)cc1 (stereo unspecified)	> 100 µM
O=C(O)c1ccc(S(=O)(=O)Nc2ccc3oc4c(c3c2)C(=O)CCC4)cc1	> 100 µM
CCCCCCCCCc1cc[n+](CC(=O)c2ccc([N+](=O)[O-])cc2)cc1	3.13 µM
CC(=O)N1c2ccccc2NC2=C(C(=O)N(Cc3ccccc3)C2(C)C)C1c1ccco1 (stereo unspecified)	> 25 µM
O=C(Cc1csc(N=Nc2c(O)[nH]c3ccccc23)n1)Nc1ccccc1	> 100 µM
CCN(CC)CCCn1c(=O)c2ccccc2n2c3c(=O)n(C)c(=O)n(C)c3nc12	10.4 µM
N=C(N)c1ccc(-c2ccc(-c3ccccc3)s2)cc1	4.73 µM

###

Reported GI50 values, NCI-H460 lung.
measurementName: GI50

> print(dat)
                                    molecule  measurementname  measuredvalue
 1  CC(=O)[O-].[Mn+3].[O-]c1ccccc1C=NCCN=Cc1ccccc1[O-]             GI50        44.4 µM
 2  CCCCCCCCCc1cc[n+](CC(=O)c2ccc([N+](=O)[O-])cc2)cc1             GI50        1.53 µM
 3  Cc1nc([C@H]2CC[C@H]3[C@@H]4CCC5=CC(=O)CC[C@]5(C)[C@H]4CC[C@]23C)cs1             GI50        2.67 µM
 4  COc1cc(Nc2ncc(F)c(Nc3ccc4c(n3)NC(=O)C(C)(C)O4)n2)cc(OC)c1OC             GI50       > 100 µM
 5  O=C(/C=C/C=C/c1c(C2CC2)nc2ccccc2c1-c1ccc(F)cc1)c1cccs1             GI50        1.14 µM
 6  Cc1cc(O)c(C2=NN(c3ccc(S(N)(=O)=O)cc3)C(c3ccc(N(C)C)cc3)C2)c(C)c1Cl (configuration not stated)             GI50        12.2 µM
 7  Nc1ccccc1NC(=O)c1ccc(CCCC(=O)Nc2ccc(C3CC3N)cc2)cc1 (configuration not stated)             GI50        2.63 µM
 8                COC1=CC(=O)C(OC)=C(OC)C1=O             GI50          77 µM
 9  CN1C(=O)[C@@H](NC(=O)[C@H](CCC(F)(F)F)[C@H](CCC(F)(F)F)C(N)=O)N=C(c2ccccc2)c2ccccc21             GI50        83.4 µM
10  Clc1ccc(C2=Nn3c(nnc3-c3cc(Cl)cc(Cl)c3Cl)SC2)cc1             GI50        41.3 µM
11  Cc1cc(Nc2c3ccccc3nc3ccccc23)ccc1NS(C)(=O)=O             GI50        3.07 µM
12  O=C(Nc1ccccc1O)c1ccc(CNc2ccnc(C(F)(F)F)c2)cc1             GI50        3.78 µM

###

- Tested on: K-562 leukemia
- assayOverview: NCI tumour cell line growth inhibition, 48 h
measurementName: TGI (µM)

> print(dat)
                                    molecule   targetofassay  qualifiersign  measuredvalue
 1  COc1cc(C2SC(N)=Nc3c2c(C)nn3C(=O)c2ccccc2O)ccc1O (stereo not given)  K-562 leukemia              >           3.75
 2  CCCCOC(=O)NC(Nc1cccc(C(F)(F)F)c1)(C(F)(F)F)C(F)(F)F  K-562 leukemia              >            100
 3          COc1cc(O)c2c(c1)C(=O)C=C(Cl)C2=O  K-562 leukemia              >            100
 4  CCCCCCCCCc1cc[n+](CC(=O)c2ccc([N+](=O)[O-])cc2)cc1  K-562 leukemia              =           2.02
 5  O=C(Nc1nn(C(=O)c2ccc(Cl)cc2)c(=O)s1)c1ccc(Cl)cc1  K-562 leukemia              >            100
 6  Cc1ccc(N=N/C(=N/NC(=O)c2cc(Cl)ccc2C(=O)c2ccccc2)c2ccc(N(CCC#N)CCC#N)cc2C)cc1  K-562 leukemia              >            100
 7  CC(=O)O[C@@H]1[C@@H](O)C2=C3[C@]4(C)[C@@H]1C(C)(C)C(=O)C[C@@H]4[C@]3(O)[C@H](OC(C)=O)[C@@]1(C[C@@H]1C)C2=O  K-562 leukemia              >            100
 8  COc1cc(C=C2C(C)=NN(c3cccc(Cl)c3)C23C(Cl)C(=O)N3c2nc3ccccc3s2)ccc1O (stereo not given)  K-562 leukemia              =           25.2
 9         O=c1cc(-c2ccccc2)oc2cc(O)cc(O)c12  K-562 leukemia              =           63.1
10  CN1CCN(c2ccc(Nc3nc(N)c(C(=O)c4ccc5c(c4)OCCO5)s3)cc2)CC1  K-562 leukemia              =           18.3
